Target: Cst6 (UniProt P40535)
Sequence (P40535 whole entry): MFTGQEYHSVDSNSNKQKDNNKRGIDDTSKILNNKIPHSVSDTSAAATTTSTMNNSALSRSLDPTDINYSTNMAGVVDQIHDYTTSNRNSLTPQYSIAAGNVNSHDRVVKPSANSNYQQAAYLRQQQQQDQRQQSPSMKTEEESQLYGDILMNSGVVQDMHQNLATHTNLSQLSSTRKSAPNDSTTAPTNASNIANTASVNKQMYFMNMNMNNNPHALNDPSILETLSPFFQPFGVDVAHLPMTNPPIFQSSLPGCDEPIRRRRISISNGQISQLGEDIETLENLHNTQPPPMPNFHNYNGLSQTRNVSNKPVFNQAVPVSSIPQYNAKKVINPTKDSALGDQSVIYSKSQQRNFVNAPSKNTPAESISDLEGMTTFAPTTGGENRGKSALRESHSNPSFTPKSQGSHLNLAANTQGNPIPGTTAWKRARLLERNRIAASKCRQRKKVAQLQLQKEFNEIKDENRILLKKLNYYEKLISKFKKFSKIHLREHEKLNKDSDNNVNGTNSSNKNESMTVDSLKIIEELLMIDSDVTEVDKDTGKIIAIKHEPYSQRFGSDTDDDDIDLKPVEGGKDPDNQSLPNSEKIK
Assay: PBM E-score (8-mer binding enrichment) (E-score (-0.5 to 0.5)); higher = stronger / more preferred TF binding
Details: protein concentration: 200 nM; construct: GST-DNA-binding domain
In all, about 33,000 sequences were measured (“E-score (-0.5 to 0.5)”: median about -0.016, highest 2% from about 0.31 on). Many of the other results were omitted from the sample, so the highest values are more common in it than they were.
parameter: PBM E-score
Answer field: number only, no words.

Consider the worked cases shown below.
CAATGACC = 0.148
AAATGACA = 0.298
AATTTTAT = 0.346
ATACGTAC = 0.198
CAGCGTCA = 0.279
AAGCTTGA = -0.0535
TAATGAGA = 0.0949
GAGCGTCA = 0.271
TAATGACA = 0.347
ATACGTAT = 0.376

Now consider the entry below.
The reported value for GCGCCAAA in terms of PBM E-score is -0.042
